Test system: Matrix protein 2 (Influenza A virus (A/Udorn/307/1972(H3N2))), P0DOF8 [S31N]
Assay: Inhibition of Influenza A virus AM2 S31N mutant expressed in xenopus laevis frog oocytes assessed as inhibition of channel current at 100 uM after 2 mins by two-electrode voltage clamp assay relative to control
Type: cell-based
QUANTITY: inhibition (%)

| COMPOUND_STRUCTURE_STRING | QUANTITY | UNITS_TEXT | VALUE_REPORTED |
| --- | --- | --- | --- |
| COc1ncc(-c2ccc(CNC34CC5CC(CC(O)(C5)C3)C4)s2)cn1 | inhibition | % | 4.4 |
| OC12CC3CC(C1)CC(NCc1ccc(I)s1)(C3)C2 | inhibition | % | 75.6 |
| OC12CC3CC(C1)CC(NCc1cc(Br)cs1)(C3)C2 | inhibition | % | 56.6 |
| OC12CC3CC(C1)CC(NCc1ccc(-c4ccc(F)cc4F)s1)(C3)C2 | inhibition | % | 74.5 |
| COC(=O)c1ccc(-c2ccc(CNC34CC5CC(CC(O)(C5)C3)C4)s2)cc1 | inhibition | % | 64.3 |
| OC12CC3CC(C1)CC(NCc1csc(Br)c1)(C3)C2 | inhibition | % | 48.3 |
| OC12CC3CC(C1)CC(NCc1ccc(-c4ccccc4)s1)(C3)C2 | inhibition | % | 84.6 |

====

Catalogue of inhibition readings, one per entry.
System: Matrix protein 2 (Influenza A virus (A/Udorn/307/1972(H3N2))), P0DOF8 [S31N]
Assay: Inhibition of Influenza A virus AM2 S31N mutant expressed in xenopus laevis frog oocytes assessed as inhibition of channel current at 100 uM after 2 mins by two-electrode voltage clamp assay relative to control
Assay type: cell-based

| COMPOUND_STRUCTURE_STRING | UNITS_TEXT | inhibition |
| --- | --- | --- |
| c1csc(-c2ccc(CNC34CC5CC(CC(C5)C3)C4)s2)c1 | % | 86.1 |
| OC12CC3CC(C1)CC(NCc1cnc(Br)s1)(C3)C2 | % | 33.5 |
| OC12CC3CC(C1)CC(NCc1nc(Br)cs1)(C3)C2 | % | 36 |
| Ic1ccc(CNC23CC4CC(CC(C4)C2)C3)s1 | % | 78.5 |
| Brc1ccc(CNC23CCC4CC(CC(C4)C2)C3)s1 | % | 72.6 |
| Brc1ccc(CNC23CC4CC(CC(C4)C2)C3)[se]1 | % | 70.6 |
| COc1ccc(-c2ccc(CNC34CC5CC(CC(O)(C5)C3)C4)s2)cc1OC | % | 37.6 |
| OC12CC3CC(C1)CC(NCc1ccc(-c4ccccc4Cl)s1)(C3)C2 | % | 78.7 |
| OC12CC3CC(C1)CC(NCc1ccc(Br)s1)(C3)C2 | % | 64.7 |
| CSc1ccccc1-c1ccc(CNC23CC4CC(CC(O)(C4)C2)C3)s1 | % | 73.4 |
| COc1ccc(-c2ccc(CNC34CC5CC(CC(O)(C5)C3)C4)s2)cn1 | % | 68.3 |
